Target: pooled human IgG (human); note: test concentration or dose not given here
Assay: cell-based or functional assay
measured parameter: Enzyme Activity Endpoint Assay (purified): scIgG

binder | result
PRT-205 (enzyme) MEVVEVWPYGQNPNGKTEILSQTEDSESLQRLRDIEDFQAEKKKEGVVYTKWLDGVDVDDHDFRKIVDGNIAYYATPLLNGRGFYDINKDFNRDSDKCAAAVAANMFHYWLDRNRDNVDRFLKQNPEKHGIIELPDGQLKLSDFLNTYESDNGYRDKSKLFDFISNNFNGPVWTDKLLDNYINGYAYNYKYGRTIEDPTKNTSKINFFKEVFNEKILTNNHSIRNYNTFSDLLSEALYTGKAIGLSYGPAGLRHSLGHIISVWGADLDADGNVVAIYVTDSDDKKLTIGDERVGLKRYKVSSDDENRLRLTAYEETHNTGGQIRGIYTLDTGKQAWADYFDKTEQTGTDQAEQLEHHHHHH | 278 ng/µL
